# Test system: HT-29
# experimental_details: MTT assay, HT-29 colon tumor cells
# Type: cell-based
# condition_info: Homo sapiens, Table 2, treatment time not stated, read-out: ID50 (μM) of different Tumor cells Colon HT-29
observed_property: IC50 (µM)

Here is how some compounds turned out for IC50.
O=C(OCCCCCCOC1=CC(=O)C(=O)c2ccccc21)OCCCCCCOC1=CC(=O)C(=O)c2ccccc21
2.8
CCCCN(CC1=CC(=O)C(=O)c2ccccc21)C(=O)CCC(=O)N1CCOCC1
3.4
CCCCN(CC1=CC(=O)C(=O)c2ccccc21)C(C)=O
6.05

a = O=C1C=C(CCCCCCCCc2ccc(Nc3c4ccccc4nc4ccccc34)cc2)c2ccccc2C1=O
b = O=C1C=C(OCCCCCNc2c3ccccc3nc3ccccc23)c2ccccc2C1=O
Q. # compare IC50 for a vs b ; return the one with the smaller value Respond using the label that marks the chosen record.
A. a
(a: 5.7 µM, b: 10.1 µM)

====

# System: HT-29
# experimental_details: MTT assay, HT-29 colon tumor cells
# Assay type: cell-based
# condition_info: Homo sapiens, Table 2, treatment time not stated, read-out: ID50 (μM) of different Tumor cells Colon HT-29
observed_property: IC50 (µM)

O=C1C=C(OCCCCCCO)c2ccccc2C1=O
20
CCCCN(CC1=C(Br)C(=O)C(=O)c2ccccc21)C(C)=O
22.1

====

# Test system: HT-29
# experimental_details: MTT assay, HT-29 colon tumor cells
# Assay type: cell-based
# condition_info: Homo sapiens, Table 2, treatment time not stated, read-out: ID50 (μM) of different Tumor cells Colon HT-29
Measured IC50, listed per entry for reference.

Here is how some compounds turned out for IC50.
CC(C)(C)C(=O)OC1=CC(=O)C(=O)c2ccccc21 [SL-11054]
> 31.2 µM
Cl.O=C1C=C(OCCCCCNC2CCCCC2)c2ccccc2C1=O [SL-11060]
> 31.2 µM

Then this compound:
Q. Quick check: IC50 of CCCCN(CC1=CC(=O)C(=O)c2ccccc21)C(=O)C(F)(F)F [SL-11088] ?
A. > 31.2 µM
